# experiment description: Inhibition of hedgehog signaling pathway in mouse Ptch+/- p53-/- medulloblastoma cells assessed as inhibition of receptor-mediated Gli1 transcriptional activity at antiproliferative IC90 concentration after 24 hrs by RT-PCR analysis relative to control
measured property: fold change (FC)

Use the examples below as a reference point.
C#CCCCn1ncn(-c2ccc(N3CCN(c4ccc(OC[C@H]5CO[C@](Cn6cncn6)(c6ccc(Cl)cc6Cl)O5)cc4)CC3)cc2)c1=O; < 0.15
O=c1n(-c2ccc(N3CCN(c4ccc(OC[C@@H]5CO[C@@](Cn6cncn6)(c6ccc(Cl)cc6Cl)O5)cc4)CC3)cc2)cnn1CC1CCCC1; 0.16

Lab note: measured fold change (FC) of O=C(c1ccccc1)c1ccc(OCCCCCCn2ncn(-c3ccc(N4CCN(c5ccc(OC[C@@H]6CO[C@@](Cn7cncn7)(c7ccc(Cl)cc7Cl)O6)cc5)CC4)cc3)c2=O)cc1 was > 0.45

Quick note, fold change (FC) for CC/C=C\CCn1ncn(-c2ccc(N3CCN(c4ccc(OC[C@@H]5CO[C@@](Cn6cncn6)(c6ccc(Cl)cc6Cl)O5)cc4)CC3)cc2)c1=O landed at < 0.15

In plain terms, CC(C)CCn1ncn(-c2ccc(N3CCN(c4ccc(OC[C@@H]5CO[C@@](Cn6cncn6)(c6ccc(Cl)cc6Cl)O5)cc4)CC3)cc2)c1=O has a documented fold change (FC) of < 0.15

Sample O=c1[nH]ncn1-c1ccc(N2CCN(c3ccc(OC[C@@H]4CO[C@@](Cn5cncn5)(c5ccc(Cl)cc5Cl)O4)cc3)CC2)cc1 ; fold change (FC) observed: < 0.15

get_value(item= N#CCCCCCn1ncn(-c2ccc(N3CCN(c4ccc(OC[C@@H]5CO[C@@](Cn6cncn6)(c6ccc(Cl)cc6Cl)O5)cc4)CC3)cc2)c1=O , readout=fold change (FC)) returns 0.16

For reference, reported fold change (FC) for O=c1n(-c2ccc(N3CCN(c4ccc(OC[C@@H]5CO[C@@](Cn6cncn6)(c6ccc(Cl)cc6Cl)O5)cc4)CC3)cc2)cnn1CCCCCCc1ccccc1 stands at < 0.15
